# Assay procedure: yeast display, Sf9 membrane polyspecificity reagent, FACS + sequencing; frameworks hold sequencing errors
Result type: polyreactivity (PSR sort gate)

Would you please look over these solved cases?
Sequence text | Reported value
QVQLVESGGGLVQAGGSLRLSCAASGSTFGSNAMGWYRQAPGKEREFVAAITWSGGSTYYADSVKGRFTISRDNAKNTVYLQMNSLKPEDTAVYYCAAESDSYFREYDYWGQGTQVTVSS | low polyreactivity
QVQLVESGGGLVQAGGSLRLRCAASGSIFGAYAMAWYRQAPGKERELVAAINSDISTNYADSVKGRFTISRDNAKNTVYFQMTSVKPEDTAVYYCGVDWPRIYLRYNYWGQGTAVTVSS | low polyreactivity
QVQLVESGGGLVQAGGCLRLSCAGSRSTFHYYTMGWYRQAPGKERELVAAISWRGTSTYYADSVKGRFTISRDNAKNTLYVQMNSLKPEDTGVYYCAVRSSPGAGYYYWGQGTQGTVSS | high polyreactivity
QVQLVESGGGLVQAGGSLSLSCAASGFIFGAYAMGWYRQAPRKERELVADITQNSGSTYYADSVKGRFTISRDNAKYTVYLQMNSVKPEVTAVYFCNADWETADDYWGQGTQVTVSS | low polyreactivity
LVQLVESGGGLVQAGGSLRLSCAASGSTFIPYAMGWYRQAPGKERELVAAIRGGDGSTYYADSVKGRFTISRDNAKNTVYLQMNSLKPEDTAVYYCAADTVITAYFYRFWRYNYWGQGTQVTVSS | low polyreactivity

What value of polyreactivity (PSR sort gate) has been recorded for this entry: QVQLVESGGGLVQAGGSHRLSCAASGSIFYKNAMGWYRQAPGKERELVAAITKRGGTTYYADSVKGRFTISRDNAKNTVYLQMNSLKPEDTAVYYCAKYLGPASIVRYEYWGQGTQVTVSS high polyreactivity

What value of polyreactivity (PSR sort gate) has been recorded for this entry: QVQLVESGGGLVQAGGSLRLICAASGRIFRYYAMGWYRQAPGKERELVASISWRGGSTYYADSVKGRFTISRDNAKNTVYLQMNSLKPDDTAVYYCNAAPGAFYRWWGFGSDYWGQGTQVTVSS high polyreactivity

What value of polyreactivity (PSR sort gate) has been recorded for this entry: QVQLVESGGGLVQAGGSLRLSCAASGSIFRDNAMGWYLQAPGKERELVASISRRGGSTYYADSVKGRFTISRDNAKNTVYLQMNSLKPEDTAVYYCAARAVGGTVPTRYDYWGQGTQVTVSS high polyreactivity

What value of polyreactivity (PSR sort gate) has been recorded for this entry: QVQHVESGGGLVQAGGSLRLSCAASGSIFGTYAMGWYRQAPGKERELVAAIRWSSGSTYYADSVKGRFTISRDNAKYTVYLLMNSLKPEDTAVYYCNAEYVYYWLGATFGYWGQGTQVTVSS high polyreactivity

What value of polyreactivity (PSR sort gate) has been recorded for this entry: QVQLVESGGGLVQAGGSLRLSCAASGSTFEVYAMGWYRQAPGKERELVAVINVSDGSTYYADSVKGRFTISRDNAKNTVYLQMNSLKPEDTAVYYCAAYLYNRPYQLTGYYDGYGYWGQGTQVTVSS low polyreactivity

What value of polyreactivity (PSR sort gate) has been recorded for this entry: QVQLVESGGGLVQAGGSLRLSCAASGSIFHGNAMGWYRQAPGKERELVAAITGRGVSTYYADSVKGRFTISRDNAKNTVYLQMKSLKPEDTAVYYCAAVRSKYWYYQGGYSSYGYWGQGTQVTVSS high polyreactivity

What value of polyreactivity (PSR sort gate) has been recorded for this entry: QVQLVESGGGLVQAGGSLRLSCAASGSIFVYNAMGWYRQAPGKEWELVAAISFSGGDTYYADSVKGRFTISRDNAKNTVYLQMNSLKPEDTAVYYCNVDNSEYEGDYWGQGTQVTVSS low polyreactivity

Numbers sourced from the nanobody polyreactivity screen of Harvey et al. (2022).
